Assay: Cytotoxicity against HUVEC after 5 days by MTT assay
Type: cell-based
Conditions: human, HUVEC cells
assay_metric: IC50 at 120 h (µM)
A number alone suffices; assume µM.

I would be grateful if you could share the reported IC50 at 120 h for Oc1cccc2nc3c(O)cccc3nc12 .
3.81

----------
Tested on: Chromobacterium violaceum
Assay: Antibacterial activity against Chromobacterium violaceum DSM 30191 assessed as growth inhibition after 24 to 48 hrs
Format: functional
Active and inactive are the calls of the source. The rule behind the calls is not given here.
assay_metric: MIC

OC[C@H]1O[C@H](Oc2cccc3nc4c(O)cccc4nc23)[C@@H](O)[C@@H]1O
inactive
Oc1cccc2nc3c(O)cccc3nc12
66.7 µg/mL
CN[C@@H]1[C@H](O[C@H]2[C@H](O[C@H]3[C@H](O)[C@@H](O)[C@H](N=C(N)N)[C@@H](O)[C@@H]3N=C(N)N)O[C@@H](C)[C@]2(O)C=O)O[C@@H](CO)[C@H](O)[C@H]1O.CN[C@@H]1[C@H](O[C@H]2[C@H](O[C@H]3[C@H](O)[C@@H](O)[C@H](N=C(N)N)[C@@H](O)[C@@H]3N=C(N)N)O[C@@H](C)[C@]2(O)C=O)O[C@@H](CO)[C@H](O)[C@H]1O.O=S(=O)(O)O.O=S(=O)(O)O.O=S(=O)(O)O [STREPTOMYCIN SULFATE]
2.1 µg/mL
COC1=CC(=O)O[C@H](c2coc(/C(=C/c3ccc(Cl)[nH]3)CO)n2)[C@@H]1C
inactive
